Assayed system: 5-Lipoxygenase (Mus musculus)
Construct: Use the interleukin-3-dependent murine mast cell clone, MC-9; endogenous in cells; host or cells: MC-9 murine mast cell clone (interleukin-3-dependent)
Sequence (P48999 whole entry): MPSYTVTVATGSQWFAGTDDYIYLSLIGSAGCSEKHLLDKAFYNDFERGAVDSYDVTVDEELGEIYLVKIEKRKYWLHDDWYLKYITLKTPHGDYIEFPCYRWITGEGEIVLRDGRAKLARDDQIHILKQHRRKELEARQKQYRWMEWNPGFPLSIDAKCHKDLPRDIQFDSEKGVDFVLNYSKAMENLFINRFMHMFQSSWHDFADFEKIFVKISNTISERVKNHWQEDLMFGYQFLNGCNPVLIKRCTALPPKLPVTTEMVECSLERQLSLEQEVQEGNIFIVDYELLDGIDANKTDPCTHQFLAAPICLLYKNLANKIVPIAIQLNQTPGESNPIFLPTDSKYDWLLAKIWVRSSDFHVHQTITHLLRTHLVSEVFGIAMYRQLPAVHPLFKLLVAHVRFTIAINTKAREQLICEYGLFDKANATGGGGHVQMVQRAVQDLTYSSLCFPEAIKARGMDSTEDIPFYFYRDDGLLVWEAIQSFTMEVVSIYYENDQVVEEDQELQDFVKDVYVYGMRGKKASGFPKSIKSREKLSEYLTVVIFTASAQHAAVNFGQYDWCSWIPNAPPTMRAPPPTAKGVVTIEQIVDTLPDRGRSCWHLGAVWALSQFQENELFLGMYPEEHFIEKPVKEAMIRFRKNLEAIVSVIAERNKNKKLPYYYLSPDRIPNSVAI
Experiment summary: 5-Lipoxygenase Assay (inhibition of LTC4 and 5-HETE production in MC-9 mast cells)
Assay type: cell-based
Reported conditions: MC-9 murine mast cells, [14C]-arachidonic acid, A23187
Please mark true if the recorded inhibition at 50 µM is equal to or greater than 80%, and false if it falls below.

Answered cases to consult:
> print(dat)
                                   molecule                 assayed.system  qualitative.label
1        O=C(O)CCC/C=C\c1cccc(OCc2ccccc2)c1  5-Lipoxygenase (Mus musculus)               true
2        O=C(O)CCC/C=C/c1cccc(OCc2cccnc2)c1  5-Lipoxygenase (Mus musculus)              false
3        O=C(O)CCC/C=C/c1cccc(SCc2ccccc2)c1  5-Lipoxygenase (Mus musculus)              false
4         O=C(O)CCC/C=C/c1cccc(Oc2ccccc2)c1  5-Lipoxygenase (Mus musculus)              false
5  O=C(O)CCC/C=C/c1cccc(OCC2CCCCO2)c1 (stereo not drawn)  5-Lipoxygenase (Mus musculus)              false
6        O=C(O)CCC/C=C/c1cccc(OCc2ccccc2)c1  5-Lipoxygenase (Mus musculus)               true

As a next step, examine the molecule that follows.
Input line: Kindly determine if inhibition at 50 µM recorded for CCOC(=O)CCC/C=C/c1cccc(OCc2c[nH]cn2)c1 is above or exactly 80%.
Output line: true

From: patent US4897397A
